Known activity at 150000 µM of a selection of compounds
# ASSAY SYSTEM: BFP-aq (Aequorea victoria, UniProt P07164)
# ASSAY OVERVIEW: biochemical
# Type: biochemical
# Parameters: The recombinant apoaequorins encoded by piP-HE is composed of 191 amino acids, whose N-terminus starts from Ala-Asn-Ser-; made in house; host or cells: E. coli strain WA802
# CONDITION NOTES: pH 8, read-out: Luminescence activity (%) Initial velocity
Reply with just the number (in %).

COMPOUND	activity at 150000 µM / %
N=C(N)NCCC[C@H](N)C(=O)O [L-Arginine]	4

Problem: Name the recorded activity at 150000 µM of the item Cc1ncc[nH]1 [2-Methylimidazole] in your answer.
Result: 21

----------
# ASSAY SYSTEM: BFP-aq (Aequorea victoria, UniProt P07164)
# ASSAY OVERVIEW: biochemical
# Format: biochemical
# Parameters: The recombinant apoaequorins encoded by piP-HE is composed of 191 amino acids, whose N-terminus starts from Ala-Asn-Ser-; made in house; host or cells: E. coli strain WA802
# CONDITION NOTES: compound 150 mM; 50 mM Tris-HCl pH 8.0, 25° C., coelenterazine 1 μg; no compound = 100%
Counter-ions that a name gives are not always drawn.
ASSAY READOUT: Luminescence activity (%) Imax
Value and unit, in that order.

COMPOUND	Luminescence activity (%) Imax
NC(=O)c1nc[nH]c1N	0%
N=C(N)N [Guanidine/hydrochloride]	109%
CC(N)=O [Acetamide/hydrochloride]	31%
NCC(=O)O	83%

Moving on to another compound below.
Problem: Enter Luminescence activity (%) Imax (test system BFP-aq (Aequorea victoria, UniProt P07164)) for `NC(N)=O`
Result: 89%

----------
# ASSAY SYSTEM: BFP-aq, luciferase with fluorescence activity derived from aequorin (recombinant apoaequorin, SEQ ID NO: 1 with N-terminal Val replaced by Ala-Asn-Ser; complex with coelenteramide and calcium ions) (Aequorea victoria)
# Construct: The recombinant apoaequorins encoded by piP-HE is composed of 191 amino acids, whose N-terminus starts from Ala-Asn-Ser-; made in house; host or cells: E. coli strain WA802 (expression vector piP-HE)
# Sequence (P02592 with tags, fused parts or gaps): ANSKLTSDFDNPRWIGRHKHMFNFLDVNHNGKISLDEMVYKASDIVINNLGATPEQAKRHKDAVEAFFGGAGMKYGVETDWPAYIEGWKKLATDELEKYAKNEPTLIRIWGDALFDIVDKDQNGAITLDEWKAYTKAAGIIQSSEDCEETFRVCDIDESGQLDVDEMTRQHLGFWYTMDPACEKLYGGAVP
# ASSAY OVERVIEW: Enhancing effect of organic compounds on BFP-aq luminescence with coelenterazine as substrate (Table 4)
# Assay type: biochemical
# CONDITION NOTES: 150 mM compound, pH 8.0, 25° C., no addition = 100%, read-out: Luminescence activity, initial velocity
Rule: activity at 150000 µM under 80% gives condition not met, otherwise condition met.

Problem: Is activity at 150000 µM for `NC(=O)c1nc[nH]c1N` at or above 80%?
Result: condition not met

----------
# ASSAY SYSTEM: BFP-aq, luciferase with fluorescence activity derived from aequorin (recombinant apoaequorin, SEQ ID NO: 1 with N-terminal Val replaced by Ala-Asn-Ser; complex with coelenteramide and calcium ions) (Aequorea victoria)
# Construct: The recombinant apoaequorins encoded by piP-HE is composed of 191 amino acids, whose N-terminus starts from Ala-Asn-Ser-; made in house; host or cells: E. coli strain WA802 (expression vector piP-HE)
# ASSAY OVERVIEW: Enhancing effect of organic compounds on BFP-aq luminescence with coelenterazine as substrate (Table 4)
# Assay type: biochemical
# CONDITION NOTES: 30 mM compound, pH 8.0, 25° C., no addition = 100%, read-out: Luminescence activity, initial velocity
Structures can show the parent of a compound that is named as a salt.
ASSAY READOUT: activity at 30000 µM (%)
Please give a number only; it is taken to be in %.

Take a look at these entries with their results.
COMPOUND	OUTPUT UNIT	activity at 30000 µM
N=C(N)N [Guanidine/hydrochloride]	%	130
CC(N)=O [Acetamide/hydrochloride]	%	132
NC(=O)c1nc[nH]c1N	%	48

Problem: Determine from records and report activity at 30000 µM for NC(N)=O [Urea]
Result: 113

Problem: Hello, please tell me recorded activity at 30000 µM for this one: NCC(=O)O [L-Glycine]
Result: 104

----------
# ASSAY SYSTEM: BFP-aq, luciferase with fluorescence activity derived from aequorin (recombinant apoaequorin, SEQ ID NO: 1 with N-terminal Val replaced by Ala-Asn-Ser; complex with coelenteramide and calcium ions) (Aequorea victoria, UniProt P02592)
# Construct: The recombinant apoaequorins encoded by piP-HE is composed of 191 amino acids, whose N-terminus starts from Ala-Asn-Ser-; made in house; host or cells: E. coli strain WA802 (expression vector piP-HE)
# ASSAY OVERVIEW: Enhancing effect of organic compounds on BFP-aq luminescence with coelenterazine as substrate (Table 4)
# Assay type: biochemical
# CONDITION NOTES: 30 mM compound, pH 8.0, 25° C., no addition = 100%, read-out: Luminescence activity, Imax
Where a name gives a salt, the structure may show the parent alone.
ASSAY READOUT: activity at 30000 µM (%)
Please reply with the bare figure in % and do not write the unit itself.

Please review the following examples before continuing.
MOLECULE	RESULT VALUE
N=C(N)N [Guanidine/hydrochloride]	92
NC(N)=O	84
NC(=O)c1nc[nH]c1N	64
NCC(=O)O	87

Then this molecule:
Problem: Respond only with activity at 30000 µM recorded for CC(N)=O [Acetamide/hydrochloride]
Result: 73

----------
Listing of recorded activity at 30000 µM by entry.
# ASSAY SYSTEM: UniProt:P07164
# ASSAY OVERVIEW: biochemical
# Type: biochemical
# Set-up: The recombinant apoaequorins encoded by piP-HE is composed of 191 amino acids, whose N-terminus starts from Ala-Asn-Ser-; made in house; host or cells: E. coli strain WA802
# CONDITION NOTES: pH 8, read-out: Luminescence activity (%) Imax

COMPOUND	RESULT VALUE
Cc1c[nH]cn1 [4-Methylimidazole]	88%

Problem: Consider the compound Cc1ncc[nH]1 [2-Methylimidazole] and give its recorded activity at 30000 µM.
Result: 63%

Problem: Note activity at 30000 µM for the compound shown: N[C@@H](Cc1c[nH]cn1)C(=O)O [L-Histidine]
Result: 37%

Problem: Using the record for C[C@H](N)C(=O)O [L-Alanine] , state its measured activity at 30000 µM.
Result: 88%

Problem: State its activity at 30000 µM: N=C(N)NCCC[C@H](N)C(=O)O [L-Arginine]
Result: 62%

Problem: Give the reported value of activity at 30000 µM for this record: O=C(O)/C=C/c1c[nH]cn1 [Urocanic acid]
Result: 44%

----------
# ASSAY SYSTEM: BFP-aq (Aequorea victoria)
# ASSAY OVERVIEW: biochemical
# Type: biochemical
# Parameters: The recombinant apoaequorins encoded by piP-HE is composed of 191 amino acids, whose N-terminus starts from Ala-Asn-Ser-; made in house; host or cells: E. coli strain WA802
# CONDITION NOTES: pH 8, read-out: Luminescence activity (%) Initial velocity
ASSAY READOUT: activity at 30000 µM (%)
Lab book: enter the figure in %, no units written.

N=C(N)NCCC[C@H](N)C(=O)O 73
C[C@H](N)C(=O)O 82

Attention now shifts to the item below.
Problem: State, in one line, measured activity at 30000 µM of `O=C(O)/C=C/c1c[nH]cn1`
Result: 31

----------
# ASSAY SYSTEM: UniProtKB P07164
# ASSAY OVERVIEW: biochemical
# Type: biochemical
# Parameters: The recombinant apoaequorins encoded by piP-HE is composed of 191 amino acids, whose N-terminus starts from Ala-Asn-Ser-; made in house; host or cells: E. coli strain WA802
# CONDITION NOTES: compound 30 mM; 50 mM Tris-HCl pH 8.0, 25° C., coelenterazine 1 μg; no compound = 100%
Structures can show the parent of a compound that is named as a salt.
ASSAY READOUT: Luminescence activity (%) Imax
Write it as a number; the unit % goes unstated.

Reference set, count: 4
COMPOUND	OUTPUT UNIT	RESULT VALUE
NC(N)=O	%	84
NC(=O)c1nc[nH]c1N	%	64
NCC(=O)O	%	87
N=C(N)N [Guanidine/hydrochloride]	%	92

Could you now look at the following compound, please?
Problem: Return Luminescence activity (%) Imax (reported value) for this compound: CC(N)=O [Acetamide/hydrochloride]
Result: 73
